Sourced from ChEMBL document CHEMBL1141189

- System name: Histamine H4 receptor (Homo sapiens)
- Experimental protocol: Antagonistic activity at human histamine H4 receptor in SK-N-MC cells by inhibition of forskolin-stimulated cAMP-mediated reporter gene activity
- Format: functional, cell-based
- Cond: read-out: pA2 (converted)
Endpoint name: Kb (nM)

Guide cases for Kb, answers given:
INSERT INTO results (smiles_str, endpoint_name, observed_result) VALUES
  ('CN1CCN(C(=O)c2cc3cc(Cl)sc3[nH]2)CC1', 'Kb', 12.6),
  ('CN1CCN(C(=O)c2cc3c(Br)cccc3[nH]2)CC1', 'Kb', 158),
  ('Cc1cc(Cl)c2nc(C(=O)N3CCN(C)CC3)[nH]c2c1', 'Kb', 126),
  ('Cc1ccc2[nH]c(C(=O)N3CCN(C)CC3)cc2c1', 'Kb', 20),
  ('CN1CCN(C(=O)c2cc3cc(F)cc(F)c3[nH]2)CC1', 'Kb', 20),
  ('Cc1c(F)ccc2[nH]c(C(=O)N3CCN(C)CC3)cc12', 'Kb', 20);

P: CN1CCN(C(=O)c2cc3cccc(Cl)c3[nH]2)CC1
Q: CN1CCN(C(=O)c2cc3sc(Cl)cc3[nH]2)CC1
R: Cc1csc2cc(C(=O)N3CCN(C)CC3)[nH]c12
Task for the reader: rank each entry by its Kb, from the minimum upward. Please list the labels according to the requested order. R, Q, P
(R: 31.6 nM, Q: 50.1 nM, P: 79.4 nM)

I: CN1CCN(C(=O)c2nc3ccccc3[nH]2)CC1
II: Cc1c(Cl)sc2cc(C(=O)N3CCN(C)CC3)[nH]c12
Look at I and II . Which one has the lower recorded Kb number? Please identify the chosen entry by its label. II

###

- System name: Histamine H4 receptor (Homo sapiens)
- Experimental protocol: Displacement of [3H]histamine from recombinant human histamine H4 receptor in SK-N-MC cells
Endpoint name: Ki (µM)

P: Cc1c(F)ccc2[nH]c(C(=O)N3CCN(C)CC3)nc12
Q: Cc1c(F)ccc2[nH]c(C(=O)N3CCN(C)CC3)cc12
R: CN1CCN(C(=O)c2nc3cc(C(F)(F)F)ccc3[nH]2)CC1
S: CN1CCN(C(=O)c2nc3cc(Cl)cc(Cl)c3[nH]2)CC1
T: CN1CCN(C(=O)c2nc3c(F)c(F)ccc3[nH]2)CC1
Ordering criterion: Ki; begin with the maximum. // ordering of labels required in reply R, S, T, Q, P

###

- Experimental protocol: In vitro half life in human S9 fraction
- Assay type: ADME, Liver
Endpoint name: half-life (h)

INSERT INTO results (smiles_str, endpoint_name, observed_result) VALUES
  ('CN1CCN(C(=O)c2cc3cc(Cl)ccc3[nH]2)CC1', 'half-life', 1.67),
  ('CN1CCN(C(=O)c2nc3cc(Cl)ccc3[nH]2)CC1', 'half-life', 1.67);

###

- Experimental protocol: Oral bioavailability in rat administered with 10 mg/kg, po
- Assay type: ADME, organism-based
- Cond: in vivo
Endpoint name: bioavailability (%)

INSERT INTO assay_data (smiles_str, endpoint_name, unit_label, observed_result) VALUES
  ('CN1CCN(C(=O)c2nc3cc(Cl)ccc3[nH]2)CC1', 'bioavailability', '%', 27),
  ('CN1CCN(C(=O)c2cc3cc(Cl)ccc3[nH]2)CC1', 'bioavailability', '%', 22);

###

- System name: Histamine H4 receptor (Homo sapiens, UniProt Q9H3N8)
- Experimental protocol: Displacement of [3H]histamine from recombinant human histamine H4 receptor in SK-N-MC cells
Endpoint name: Ki (nM)

INSERT INTO results (smiles_str, observed_result) VALUES
  ('CN1CCN(C(=O)c2cc3sccc3[nH]2)CC1', 90),
  ('CN1CCN(C(=O)c2nc3cc(F)ccc3[nH]2)CC1', 19),
  ('CN1CCN(C(=O)c2nc3cc(Cl)ccc3[nH]2)CC1', 26);

P: Cc1cc(Cl)c2[nH]c(C(=O)N3CCN(C)CC3)cc2c1
Q: CN1CCN(C(=O)c2cc3cc(C(F)(F)F)ccc3[nH]2)CC1
R: Cc1cc(Cl)c2nc(C(=O)N3CCN(C)CC3)[nH]c2c1
S: CN1CCN(C(=O)c2cc3ccsc3[nH]2)CC1
T: CN1CCN(C(=O)c2nc3c(N)cccc3[nH]2)CC1
// smallest Ki at index 0, largest at the end Answer by naming the labels in the order asked. R, P, S, T, Q
(R: 23 nM, P: 33 nM, S: 90 nM, T: 244 nM, Q: 412 nM)
